experimental.details: Human liver S9 stability
Format: in vitro ADME
test.settings: human liver S9, test concentration 1 μM

# compound, CLlint(s9), µL/min/mg
records = [
    ("CC(C)OC(=O)[C@H](C)NP(=O)(OC[C@H]1O[C@@H](n2ccc(=O)[nH]c2=O)[C@](C)(F)[C@@H]1O)Oc1ccccc1 (some centres unmarked) [Patent compound 06 in 2008]", 6.0),
    ("O=c1ccc2ccc(O)cc2o1 [7-Hydroxycoumarin]", 7.2),
    ("CCOc1ccc2ccc(=O)oc2c1 [7-Ethoxycumarin]", 194.2),
    ("Cc1ccccc1COP(=O)(N[C@@H](C)C(=O)OC(C)C)OC[C@H]1O[C@@H](n2ccc(=O)[nH]c2=O)[C@](C)(F)[C@@H]1O (single isomer, unassigned) [Unresolved enantiomer 02 of patent compounds in 2013]", 72.6),
    ("CC(C)OC(=O)C(C)NP(=O)(OCc1ccccc1)OCC1OC(n2ccc(=O)[nH]c2=O)C(C)(F)C1O (mixture of isomers) [Compound 01]", 7.2),
]

###

Test system: HCV GT1b replicons
experimental.details: Anti-HCV replicon activity, HCV GT1b stable transfection replicon cell line (luciferase)
Type: cell-based, hepatitis C virus (HCV) genotype (GT) 1b
test.settings: HCV GT1b replicons, 3 days, maximum test concentration 20 μM; read-out: EC50 anti-HCV replicon activity
pEC50: −log10 of the molar value.
readout.type: pEC50

# compound, reported.measurement
records = [
    ("CC(C)OC(=O)[C@H](C)NP(=O)(OCc1ccccc1)OC[C@H]1O[C@@H](n2ccc(=O)[nH]c2=O)[C@](C)(F)[C@@H]1O (single isomer, unassigned) [Compound 01a]", 6.52),
    ("CC(C)OC(=O)[C@H](C)NP(=O)(OCc1ccccc1)OC[C@H]1O[C@@H](n2ccc(=O)[nH]c2=O)[C@](C)(F)[C@@H]1O (single isomer, unassigned) [Compound 01b]", 5.04),
    ("CC(C)OC(=O)C(C)NP(=O)(OCc1ccccc1)OCC1OC(n2ccc(=O)[nH]c2=O)C(C)(F)C1O (mixture of isomers)", 5.21),
]

###

Reported % 1 h residual percentage values for the following compounds.
experimental.details: Simulated intestinal fluid stability
Type: in vitro ADME
test.settings: test concentration 10 μM, 1 h
Procedure: 2. Simulated Intestinal Fluid Stability (Test Concentration: 10 μM), See Table 3: […]

# compound, % 1 h residual percentage / %
data = [
    ("CC(C)OC(=O)C(C)NP(=O)(OCc1ccccc1)OCC1OC(n2ccc(=O)[nH]c2=O)C(C)(F)C1O (mixture of isomers) [Compound 01]", 1.69),
    ("Cc1ccccc1COP(=O)(N[C@@H](C)C(=O)OC(C)C)OC[C@H]1O[C@@H](n2ccc(=O)[nH]c2=O)[C@](C)(F)[C@@H]1O (single isomer, unassigned) [Unresolved enantiomer 02 of patent compounds in 2013]", 0.63),
    ("CC(C)OC(=O)[C@H](C)NP(=O)(OC[C@H]1O[C@@H](n2ccc(=O)[nH]c2=O)[C@](C)(F)[C@@H]1O)Oc1ccccc1 (stereo partly shown) [Patent compound 06 in 2008]", 0.00),
    ("O=C(O)CCCc1ccc(N(CCCl)CCCl)cc1 [Chlorambucil]", 43.83),
]

###

Test system: HCV-1b replicon sub-cells
experimental.details: Cytotoxicity in HCV-1b replicon cells (cell growth fluorescent titration)
Assay type: cell-based
test.settings: HCV GT1b replicon cells, 3 days
Protocol: A hepatitis C virus (HCV) genotype (GT) 1b stable transfection replicon cell line system was used to determine the inhibitory activity of the compounds to the HCV GT1b replicons. […] [drawing 4] […] Cell activity detection: a cell growth fluorescent titration detection reagent was added to each well; after the cells were cultured for 1 hour in the incubator of 37 DEG C. and 5% CO2, a spectrophotometer detection system Envision was used to detect a Fluorescence signal value. […]

# molecule, CC50
records = [
    ("CC(C)OC(=O)[C@H](C)NP(=O)(OCc1ccccc1)OC[C@H]1O[C@@H](n2ccc(=O)[nH]c2=O)[C@](C)(F)[C@@H]1O (single isomer, unassigned) [Compound 01b]", "> 20 µM"),
    ("CC(C)OC(=O)C(C)NP(=O)(OCc1ccccc1)OCC1OC(n2ccc(=O)[nH]c2=O)C(C)(F)C1O (mixture of isomers)", "> 20 µM"),
    ("CC(C)OC(=O)[C@H](C)NP(=O)(OCc1ccccc1)OC[C@H]1O[C@@H](n2ccc(=O)[nH]c2=O)[C@](C)(F)[C@@H]1O (single isomer, unassigned) [Compound 01a]", "> 20 µM"),
]

###

experimental.details: Human liver S9 stability
Assay type: in vitro ADME
test.settings: human liver S9, test concentration 1 μM, T = 1 h
The following compounds are listed with their measured Remaining % (T = 1 h) values.
readout.type: Remaining % (T = 1 h)

# compound, readout.type, reported.measurement
measured = [
    ("O=c1ccc2ccc(O)cc2o1 [7-Hydroxycoumarin]", "Remaining % (T = 1 h)", "56.2%"),
    ("CC(C)OC(=O)C(C)NP(=O)(OCc1ccccc1)OCC1OC(n2ccc(=O)[nH]c2=O)C(C)(F)C1O (mixture of isomers)", "Remaining % (T = 1 h)", "56.2%"),
    ("CCOc1ccc2ccc(=O)oc2c1", "Remaining % (T = 1 h)", "0.0%"),
    ("CC(C)OC(=O)[C@H](C)NP(=O)(OC[C@H]1O[C@@H](n2ccc(=O)[nH]c2=O)[C@](C)(F)[C@@H]1O)Oc1ccccc1 (some centres unmarked)", "Remaining % (T = 1 h)", "58.6%"),
    ("Cc1ccccc1COP(=O)(N[C@@H](C)C(=O)OC(C)C)OC[C@H]1O[C@@H](n2ccc(=O)[nH]c2=O)[C@](C)(F)[C@@H]1O (single isomer, unassigned) [Unresolved enantiomer 02 of patent compounds in 2013]", "Remaining % (T = 1 h)", "1.1%"),
]

###

Here the recorded % 60 min residual percentage is given for each entry.
experimental.details: Human plasma stability
Format: in vitro ADME
test.settings: test concentration 2 μM, 60 min

# compound, measurement.units, % 60 min residual percentage
rows = [
    ("CC(C)[N+](C)(CCOC(=O)C1c2ccccc2Oc2ccccc21)C(C)C", "%", 2.2),
    ("CC(C)OC(=O)C(C)NP(=O)(OCc1ccccc1)OCC1OC(n2ccc(=O)[nH]c2=O)C(C)(F)C1O (mixture of isomers)", "%", 80.9),
    ("Cc1ccccc1COP(=O)(N[C@@H](C)C(=O)OC(C)C)OC[C@H]1O[C@@H](n2ccc(=O)[nH]c2=O)[C@](C)(F)[C@@H]1O (single isomer, unassigned) [Unresolved enantiomer 02 of patent compounds in 2013]", "%", 62.8),
    ("CC(C)OC(=O)[C@H](C)NP(=O)(OC[C@H]1O[C@@H](n2ccc(=O)[nH]c2=O)[C@](C)(F)[C@@H]1O)Oc1ccccc1 (stereo partly shown)", "%", 72.0),
]

###

experimental.details: Simulated intestinal fluid stability
Type: in vitro ADME
test.settings: test concentration 10 μM, 2 h
Experimental: 2. Simulated Intestinal Fluid Stability (Test Concentration: 10 μM), See Table 3: […]
# key: entry, value: % 2 h residual percentage
readout.type: % 2 h residual percentage (%)

# molecule, measurement.units, reported.measurement
records = [
    ("Cc1ccccc1COP(=O)(N[C@@H](C)C(=O)OC(C)C)OC[C@H]1O[C@@H](n2ccc(=O)[nH]c2=O)[C@](C)(F)[C@@H]1O (single isomer, unassigned) [Unresolved enantiomer 02 of patent compounds in 2013]", "%", 0.08),
    ("O=C(O)CCCc1ccc(N(CCCl)CCCl)cc1", "%", 3.91),
    ("CC(C)OC(=O)[C@H](C)NP(=O)(OC[C@H]1O[C@@H](n2ccc(=O)[nH]c2=O)[C@](C)(F)[C@@H]1O)Oc1ccccc1 (stereo partly shown)", "%", 0.00),
    ("CC(C)OC(=O)C(C)NP(=O)(OCc1ccccc1)OCC1OC(n2ccc(=O)[nH]c2=O)C(C)(F)C1O (mixture of isomers)", "%", 0.08),
]

###

experimental.details: Human liver S9 stability
Assay type: in vitro ADME
test.settings: human liver S9, test concentration 1 μM, NCF = 1 h
Measured Remaining % (NCF = 1 h) accompanies every entry in the list below.
readout.type: Remaining % (NCF = 1 h)

# compound, reported.measurement
records = [
    ("Cc1ccccc1COP(=O)(N[C@@H](C)C(=O)OC(C)C)OC[C@H]1O[C@@H](n2ccc(=O)[nH]c2=O)[C@](C)(F)[C@@H]1O (single isomer, unassigned) [Unresolved enantiomer 02 of patent compounds in 2013]", "64.7%"),
    ("CCOc1ccc2ccc(=O)oc2c1", "103.3%"),
    ("CC(C)OC(=O)[C@H](C)NP(=O)(OC[C@H]1O[C@@H](n2ccc(=O)[nH]c2=O)[C@](C)(F)[C@@H]1O)Oc1ccccc1 (some centres unmarked)", "64.0%"),
    ("O=c1ccc2ccc(O)cc2o1 [7-Hydroxycoumarin]", "67.4%"),
    ("CC(C)OC(=O)C(C)NP(=O)(OCc1ccccc1)OCC1OC(n2ccc(=O)[nH]c2=O)C(C)(F)C1O (mixture of isomers)", "67.4%"),
]
